test system: CSNK1A1L; conditions: concentration: 1 μM, replicates: in singlicate; n = 1;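 note: KINOMEscan kinase panel screen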
observedProperty: %Inh
Please state the value followed by its unit.

Which %Inh value belongs to `Cc1cccc(Nc2nc(N[C@H]3CCNC3)ncc2C(N)=O)c1.Cl` ?
78%

Which %Inh value belongs to COc1cc(Nc2nccc(N3CCC(NC(=O)c4cc5ccccc5s4)C3)n2)cc(OC)c1OC (stereo not drawn) ?
0%

Which %Inh value belongs to COc1cccc(NC(=O)NC2CCN(c3ccnc(Nc4cc(OC)c(OC)c(OC)c4)n3)C2)c1 (stereo not drawn) ?
0%

Which %Inh value belongs to `COc1cccc(C2=C(Nc3ccc(Cl)c(C(=O)O)c3)C(=O)NC2=O)c1` ?
5%

Which %Inh value belongs to `O=C(Nc1cccc(-c2nn3ncccc3c2-c2ccnc(Nc3ccccc3)n2)c1)c1c(F)cccc1F` ?
2%

Which %Inh value belongs to `CCn1c(-c2nonc2N)nc2c(C#CC(C)(C)O)nc(OC[C@H](N)c3ccccc3)cc21` ?
0%

Which %Inh value belongs to `Nc1n[nH]c2cnc(-c3ccccc3)cc12` ?
8%

Which %Inh value belongs to `Cn1cc(-c2[nH]c3cc(NC(=O)[C@H](N)C4CCCCC4)cc4c3c2C=NNC4=O)cn1` ?
3%

Which %Inh value belongs to `COC(=O)Nc1nc2cc(Oc3ccc(NC(=O)Nc4cc(C(F)(F)F)ccc4F)cn3)ccc2[nH]1.Cl.Cl` ?
0%

Which %Inh value belongs to `COc1cc(Nc2nccc(-c3c(-c4cccc(NC(=O)c5c(F)cccc5F)c4)nn4ccccc34)n2)cc(OC)c1OC` ?
15%

Which %Inh value belongs to Cc1ccc(C)c(NC(=O)NC2CCN(c3ccnc(Nc4ccc(F)cc4)n3)C2)c1 (stereo not drawn) ?
0%

Which %Inh value belongs to `Cc1ccc(C(=O)Nc2ccc(Nc3ccnc4cc(-c5nccs5)ccc34)cc2O)cc1.Cl` ?
14%

Which %Inh value belongs to `Cl.c1ccc(-c2ccc3c(Nc4ccc5[nH]ccc5c4)ccnc3c2)nc1` ?
0%

Which %Inh value belongs to `COCCOCCOc1cc2ncc3c4ccc(C#N)cc4[nH]c3c2cc1OC` ?
8%

Which %Inh value belongs to `C[C@@H](Oc1cc(-n2cnc3cc(-c4ccnc(NCCS(C)(=O)=O)c4)ccc32)sc1C(N)=O)c1ccccc1Cl` ?
22%

Which %Inh value belongs to `FC(F)(F)c1ccc(/C=C/c2cncnc2Nc2ccc3[nH]c(Cc4ccccc4)nc3c2)cc1` ?
36%

Which %Inh value belongs to `c1ccc(-c2cnc3nccnn23)cc1` ?
0%

Which %Inh value belongs to `Clc1ccc(-c2nn3ncccc3c2-c2ccnc(Nc3ccc4c(c3)OCCO4)n2)cc1` ?
17%

Which %Inh value belongs to `Oc1cc(Nc2ccnc3cc(I)ccc23)ccc1F` ?
16%

Which %Inh value belongs to Cl.Cl.NCC(C(=O)Nc1cc(Br)c(-c2ccnc3[nH]ccc23)s1)c1ccccc1 (stereo not drawn) ?
19%

Which %Inh value belongs to `CC(=O)N1CCN(c2ccc(Nc3nccc(-c4sc(C(C)C)nc4-c4cccc(NS(=O)(=O)c5cccc(Cl)c5)c4)n3)cn2)CC1` ?
0%

Which %Inh value belongs to O=C(NC1CCN(c2ccnc(Nc3ccc(F)cc3)n2)C1)c1cc2ccccc2s1 (stereo not drawn) ?
11%

Which %Inh value belongs to `COc1cccc(C(=O)Nc2cccc(Oc3ccc4nc(NC(=O)C5CC5)cn4n3)c2)c1` ?
17%

Which %Inh value belongs to `Cc1ccc(S(=O)(=O)Nc2ccc(Nc3nccc(Nc4cccc5[nH]ncc45)n3)cc2)cc1` ?
5%

Which %Inh value belongs to `CCCCc1nn2ncccc2c1-c1ccnc(Nc2ccc(N3CCN(C)CC3)cc2)n1` ?
46%

Which %Inh value belongs to `Cc1ccc(C(=O)N2CC[C@@H](O)C2)cc1-n1c(C)cc(OCc2ccc(F)cc2F)c(Br)c1=O` ?
0%

Which %Inh value belongs to `O=C(O)C(F)(F)F.O=C(O)C(F)(F)F.O=c1[nH]ccc2nc(N[C@@H]3CCCNC3)nc(Nc3ccc(S(=O)(=O)N4CCOCC4)cc3)c12` ?
99.7%

Which %Inh value belongs to COc1cc(Nc2nccc(N3CCC(NC(=O)Nc4cccc(C(C)=O)c4)C3)n2)cc(OC)c1OC (stereo not drawn) ?
0%

Which %Inh value belongs to `CN(C)S(=O)(=O)c1cc(-c2ccc3nccc(-c4cccc(S(N)(=O)=O)c4)c3c2)cnc1N` ?
14%

Which %Inh value belongs to Cl.Cl.NCC(NCc1ccc(-c2ccnc3[nH]ccc23)s1)c1ccccc1 (stereo not drawn) ?
16%

Which %Inh value belongs to `CN1CCN(Cc2cccc(-c3ccc4c(Nc5ccc(Oc6ccccc6)cc5)ccnc4c3)c2)CC1` ?
0%

Which %Inh value belongs to `O=c1[nH]cc(-c2ccc(N3CCOCC3)cc2)c2sc(-c3cn[nH]c3)cc12` ?
44%

Which %Inh value belongs to `CC(C)(C)c1ccc2nccc(Nc3cccc(O)c3)c2c1` ?
0%

###

system: YANK3; construct: gene STK32C; details: concentration: 1 μM, replicates: in singlicate; n = 1
Rule: %Inh below 20% gives met, anything at or above gives not met.

Criterion: %Inh strictly below 20%. Is it met by CSc1cccc2c(-c3ccncn3)c(-c3ccc(F)cc3)nn12 [GW514786] ?
met

Criterion: %Inh strictly below 20%. Is it met by CCS(=O)(=O)c1ccc(OC)c(Nc2nccc(-c3c(-c4cccc(NC(=O)c5c(F)cccc5F)c4)nn4ncccc34)n2)c1 [GSK326180] ?
not met

Criterion: %Inh strictly below 20%. Is it met by O=C(Nc1ccccc1F)NC1CCN(c2ccnc(Nc3ccc(F)cc3)n2)CC1 [GSK1379800] ?
met

Criterion: %Inh strictly below 20%. Is it met by CN1CCN(Cc2cccc(-c3ccc4c(Nc5ccc(Oc6ccccc6)cc5)ccnc4c3)c2)CC1 [GW578342] ?
met

Criterion: %Inh strictly below 20%. Is it met by O=C(O)C(F)(F)F.O=C(O)C(F)(F)F.O=c1[nH]ccc2nc(N[C@@H]3CCCNC3)nc(Nc3ccc(S(=O)(=O)N4CCOCC4)cc3)c12 [GSK2177277] ?
not met

Criterion: %Inh strictly below 20%. Is it met by COC(=O)Nc1nc2ccc(Oc3ccc(NC(=O)Nc4cc(C(F)(F)F)ccc4F)cc3)cc2n1C.Cl [GW692089] ?
met

Criterion: %Inh strictly below 20%. Is it met by Fc1ccc(-c2ncn(C3CCNCC3)c2-c2ccnc(Oc3ccc(-c4ccccc4)cc3)n2)cc1 [SB-245391] ?
not met

###

system: PIP5K2C; construct: gene PIP4K2C; conditions: concentration: 1 μM, replicates: in singlicate; n = 1
Kindly return label 1 if reported %Inh is no lower than 30%; return label 0 if it is lower.

Tell me whether %Inh is at least 30% here: `O=C(Nc1cccc(Oc2ccc3nc(NC(=O)C4CC4)cn3n2)c1)c1ccccc1C(F)(F)F`
label 1

Tell me whether %Inh is at least 30% here: `COc1cc(Nc2nccc(-c3c(-c4cccc(NC(=O)c5c(F)cccc5F)c4)nn4ccccc34)n2)cc(OC)c1OC`
label 0

Tell me whether %Inh is at least 30% here: `CN1CCN(Cc2cccc(-c3ccc4c(Nc5ccc(Oc6ccccc6)cc5)ccnc4c3)c2)CC1`
label 0

Tell me whether %Inh is at least 30% here: `CC(C)c1nc(-c2cccc(NS(=O)(=O)c3c(F)cccc3F)c2F)c(-c2ccnc(Nc3ccc(N4CCOCC4)nc3)n2)s1`
label 1

Tell me whether %Inh is at least 30% here: `COc1cc(Nc2ncc3c(C)nc(-c4cc5ccccc5[nH]4)n3n2)cc(OC)c1OC`
label 1

Tell me whether %Inh is at least 30% here: O=C(NC1CCN(c2ccnc(Nc3ccc(F)cc3)n2)C1)c1cc2ccccc2s1 (stereo not shown)
label 1

Tell me whether %Inh is at least 30% here: `CSc1cccc2c(-c3ccncn3)c(-c3ccc(F)cc3)nn12`
label 0

###

test system: LTK; conditions: concentration: 1 μM, replicates: in singlicate; n = 1
observedProperty: %Inh (%)
Give the value, in units of %, as a plain number.

Which %Inh value belongs to O=c1[nH]cc(-c2ccc(N3CCOCC3)cc2)c2sc(-c3cn[nH]c3)cc12 [GSK2276055] ?
5

Which %Inh value belongs to CN(C)Cc1ccc(-c2ccc3c(Nc4ccc(Oc5ccccn5)cc4)ccnc3c2)o1 [GW567148] ?
0

Which %Inh value belongs to C[C@@H](Oc1cc(-n2cnc3cc(-c4ccnc(NCCS(C)(=O)=O)c4)ccc32)sc1C(N)=O)c1ccccc1Cl [GSK907232] ?
0

Which %Inh value belongs to Cl.NC(=O)c1cccc(Nc2nccc(Nc3ccc(Oc4c(Cl)cccc4Cl)c(Cl)c3)n2)c1 [GW659009] ?
80

Which %Inh value belongs to COc1cc(Nc2nccc(-c3c(-c4cccc(NC(=O)c5c(F)cccc5F)c4)nn4ccccc34)n2)cc(OC)c1OC [GSK323521] ?
26

Which %Inh value belongs to FC(F)(F)c1ccc(/C=C/c2cncnc2Nc2ccc3[nH]c(Cc4ccccc4)nc3c2)cc1 [GW709199] ?
0

Which %Inh value belongs to COc1cc(Nc2nccc(N3CCC(NC(=O)Nc4cccc(C(C)=O)c4)C3)n2)cc(OC)c1OC (stereo not shown) [GSK1379753] ?
100

Which %Inh value belongs to `Cc1ccc(C(=O)N2CC[C@@H](O)C2)cc1-n1c(C)cc(OCc2ccc(F)cc2F)c(Br)c1=O` ?
0

Which %Inh value belongs to COc1cccc(C2=C(Nc3ccc(Cl)c(C(=O)O)c3)C(=O)NC2=O)c1 [SB-390769] ?
0

Which %Inh value belongs to COc1cccc(NC(=O)NC2CCN(c3ccnc(Nc4cc(OC)c(OC)c(OC)c4)n3)C2)c1 (stereo not shown) [GSK1379763] ?
62

Which %Inh value belongs to CN(c1ccc(NC(=O)Nc2cc(C(F)(F)F)ccc2F)cc1)c1ccnc(Nc2ccc(S(N)(=O)=O)cc2)n1 [GW809893] ?
95.7

Which %Inh value belongs to Cc1ccc(C)c(NC(=O)NC2CCN(c3ccnc(Nc4ccc(F)cc4)n3)C2)c1 (stereo not shown) [GSK1379720] ?
17

Which %Inh value belongs to Clc1ccc(-c2nn3ncccc3c2-c2ccnc(Nc3ccc4c(c3)OCCO4)n2)cc1 [GW829116] ?
19

Which %Inh value belongs to COc1cccc(-c2ccc3c(NC(=O)C4CC4)n[nH]c3n2)c1 [SB-710903] ?
0

Which %Inh value belongs to CSc1cccc2c(-c3ccncn3)c(-c3ccc(F)cc3)nn12 [GW514786] ?
0

Which %Inh value belongs to O=C(Nc1cccc(-c2nn3ncccc3c2-c2ccnc(Nc3ccccc3)n2)c1)c1c(F)cccc1F [GSK198271] ?
0
